settings: 318.15 K
measure-name: surface tension liquid-gas (mN/m)

>  <molecule>
CC(=O)OCCC(C)C [3-methylbutyl ethanoate]

>  <surface tension liquid-gas [mN/m]>
22.4

$$$$
>  <molecule>
CCOC(=O)c1ccccc1 [ethyl benzoate]

>  <surface tension liquid-gas [mN/m]>
32.5

$$$$
>  <molecule>
CCO

>  <surface tension liquid-gas [mN/m]>
20.6

$$$$
>  <molecule>
CCOC(=O)Cc1ccccc1 [ethyl phenylacetate]

>  <surface tension liquid-gas [mN/m]>
32.8

$$$$
>  <molecule>
CCCCCC(=O)OCC [ethyl hexanoate]

>  <surface tension liquid-gas [mN/m]>
23.6

$$$$
>  <molecule>
CCCCCCCC(=O)OCC [ethyl octanoate]

>  <surface tension liquid-gas [mN/m]>
24.7

$$$$
>  <molecule>
CCCC(=O)OCCC(C)C [3-methylbutyl butanoate]

>  <surface tension liquid-gas [mN/m]>
23.1

$$$$

----------
experiment: refractive index (Na D-line) (dimensionless); xn = mol fraction of the nth substance listed; settings: 298.15 K; 100.5 kPa; Liquid; Standard Abbe refractometry; x1 = 0.45
measure-name: refractive index

>  <compound>
CC(=O)OCCC(C)C [3-methylbutyl ethanoate] + CCO

>  <measure-name>
refractive index

>  <reported-result>
1.3855

$$$$
>  <compound>
CCCCCCCC(=O)OCC [ethyl octanoate] + CCO

>  <measure-name>
refractive index

>  <reported-result>
1.40053

$$$$
>  <compound>
CCCCCC(=O)OCC [ethyl hexanoate] + CCO

>  <measure-name>
refractive index

>  <reported-result>
1.39111

$$$$
>  <compound>
CCCC(=O)OCCC(C)C [3-methylbutyl butanoate] + CCO

>  <measure-name>
refractive index

>  <reported-result>
1.39431

$$$$
>  <compound>
CCOC(=O)c1ccccc1 [ethyl benzoate] + CCO

>  <measure-name>
refractive index

>  <reported-result>
1.45702

$$$$
>  <compound>
CCOC(=O)Cc1ccccc1 [ethyl phenylacetate] + CCO

>  <measure-name>
refractive index

>  <reported-result>
1.45402

$$$$

----------
experiment: xn = mol fraction of the nth substance listed; settings: 288.15 K, x1 = 0.1
measure-name: surface tension liquid-gas (mN/m)

>  <compound>
CCOC(=O)Cc1ccccc1 [ethyl phenylacetate] + CCO

>  <scale-unit>
mN/m

>  <surface tension liquid-gas>
24.6

$$$$
>  <compound>
CCOC(=O)c1ccccc1 [ethyl benzoate] + CCO

>  <scale-unit>
mN/m

>  <surface tension liquid-gas>
24.7

$$$$
>  <compound>
CCCCCCCC(=O)OCC [ethyl octanoate] + CCO

>  <scale-unit>
mN/m

>  <surface tension liquid-gas>
24

$$$$
>  <compound>
CC(=O)OCCC(C)C [3-methylbutyl ethanoate] + CCO

>  <scale-unit>
mN/m

>  <surface tension liquid-gas>
23.4

$$$$
>  <compound>
CCCCCC(=O)OCC [ethyl hexanoate] + CCO

>  <scale-unit>
mN/m

>  <surface tension liquid-gas>
23.8

$$$$
>  <compound>
CCCC(=O)OCCC(C)C [3-methylbutyl butanoate] + CCO

>  <scale-unit>
mN/m

>  <surface tension liquid-gas>
23.6

$$$$

----------
assay: xn = mol fraction of the nth substance listed; conditions: 308.15 K, x1 = 0.25
measure-name: surface tension liquid-gas (mN/m)

>  <compound>
CCCC(=O)OCCC(C)C [3-methylbutyl butanoate] + CCO

>  <measure-name>
surface tension liquid-gas

>  <reported-result>
22.5

$$$$
>  <compound>
CCOC(=O)c1ccccc1 [ethyl benzoate] + CCO

>  <measure-name>
surface tension liquid-gas

>  <reported-result>
25

$$$$
>  <compound>
CCCCCC(=O)OCC [ethyl hexanoate] + CCO

>  <measure-name>
surface tension liquid-gas

>  <reported-result>
22.8

$$$$
>  <compound>
CCCCCCCC(=O)OCC [ethyl octanoate] + CCO

>  <measure-name>
surface tension liquid-gas

>  <reported-result>
23.4

$$$$
>  <compound>
CC(=O)OCCC(C)C [3-methylbutyl ethanoate] + CCO

>  <measure-name>
surface tension liquid-gas

>  <reported-result>
21.9

$$$$
>  <compound>
CCOC(=O)Cc1ccccc1 [ethyl phenylacetate] + CCO

>  <measure-name>
surface tension liquid-gas

>  <reported-result>
24.5

$$$$
